- protocol.text: in vitro
- condition.label: human, 25% (v/v) normal human serum
- Procedure: Serum stability of peptides B7 and C7 was tested in normal human serum (Sigma-Aldrich, Steinheim, Germany) according to the modified Jenssen and Aspmo protocol. […] The influence of serum matrix on calibration curves was eliminated by the preparation of a series of vials with residual substances from serum. […] Standards of the analyzed compounds were prepared in demineralized water in concentration ranging from 1 to 15 ppm. […]
measurement.type: remaining at 2 h, 50 µg/mL (%)
// note: answer is a bare numeric in %

[
  {
    "compound": "CCCCCCC(CCCC)C(=O)N[C@@H](CCCNC(=N)N)C(=O)N[C@@H](CCCNC(=N)N)C(=O)NCCCC[C@H](NC(=O)[C@H](CCCNC(=N)N)NC(=O)[C@H](CCCNC(=N)N)NC(=O)C(CCCC)CCCCCC)C(N)=O (some centres unmarked)",
    "unit.abbrev": "%",
    "experimental.result": 87.3
  }
]

Lab note: next compound to report on.
Query: Indicate the recorded remaining at 2 h, 50 µg/mL value for this compound: CCCCCCC(CCCC)C(=O)N[C@@H](CCCNC(=N)N)C(=O)N[C@@H](CCCNC(=N)N)C(=O)N[C@@H](CSSC[C@H](NC(=O)[C@H](CCCNC(=N)N)NC(=O)[C@H](CCCNC(=N)N)NC(=O)C(CCCC)CCCCCC)C(N)=O)C(N)=O (some centres unmarked)
Response: 82.5

###

- protocol.text: in vitro
- condition.label: human, 25% (v/v) normal human serum
Listing of entries alongside the reported remaining at 0 h, 50 µg/mL.
// note: answer is a bare numeric in %

[
  {
    "compound": "CCCCCCC(CCCC)C(=O)N[C@@H](CCCNC(=N)N)C(=O)N[C@@H](CCCNC(=N)N)C(=O)NCCCC[C@H](NC(=O)[C@H](CCCNC(=N)N)NC(=O)[C@H](CCCNC(=N)N)NC(=O)C(CCCC)CCCCCC)C(N)=O (some centres unmarked)",
    "unit.abbrev": "%",
    "experimental.result": 100
  }
]

Lab note: next compound to report on.
Query: Indicate the recorded remaining at 0 h, 50 µg/mL value for this compound: CCCCCCC(CCCC)C(=O)N[C@@H](CCCNC(=N)N)C(=O)N[C@@H](CCCNC(=N)N)C(=O)N[C@@H](CSSC[C@H](NC(=O)[C@H](CCCNC(=N)N)NC(=O)[C@H](CCCNC(=N)N)NC(=O)C(CCCC)CCCCCC)C(N)=O)C(N)=O (some centres unmarked)
Response: 100

###

- Tested on: C. albicans ATCC 10231
- condition.label: ATCC 10231, 24 h
Where a SMILES comes first, the peptide text is derived from it. Bridges are numbered along the chain shown (N, C = ends). Roman numbers before positions name the chains, in order. Side-chain parts run from the residue outwards. [ ]: non-standard residue; d: D form. The star is where a group is joined. Myristoyl = CCCCCCCCCCCCCC(=O)*; Lauroyl = CCCCCCCCCCCC(=O)*; Decanoyl = CCCCCCCCCC(=O)*; Nle = CCCC[C@H](N)C(=O)O; Octanoyl = CCCCCCCC(=O)*
Listing of entries alongside the reported MIC C. albicans ATCC 10231.
Write the quantity with the unit trailing the number.

Example entries and their recorded answers appear below.
[
  {
    "compound": "CCCCCCCCCC(=O)N[C@@H](CCCNC(=N)N)C(=O)N[C@@H](CCCNC(=N)N)C(=O)N[C@@H](CSSC[C@H](NC(=O)[C@H](CCCNC(=N)N)NC(=O)[C@H](CCCNC(=N)N)NC(=O)CCCCCCCCC)C(N)=O)C(N)=O [Compound C2] (I: Decanoyl-Arg-Arg-Cys-NH2 / II: Decanoyl-Arg-Arg-Cys-NH2; disulfide I:3-II:3)",
    "MIC C. albicans ATCC 10231": "4 µg/mL"
  },
  {
    "compound": "CCCCCCCC(=O)N[C@@H](CCCC)C(=O)N[C@@H](CCCNC(=N)N)C(=O)N[C@@H](CCCNC(=N)N)C(=O)NCCCC[C@H](NC(=O)[C@H](CCCNC(=N)N)NC(=O)[C@H](CCCNC(=N)N)NC(=O)[C@H](CCCC)NC(=O)CCCCCCC)C(N)=O [Compound B6] (Octanoyl-[Nle]RRK([Arg-Arg-Nle-Octanoyl])-NH2)",
    "MIC C. albicans ATCC 10231": "16 µg/mL"
  }
]

Query: Indicate the recorded MIC C. albicans ATCC 10231 value for this compound: CCCCCCC(CCCC)C(=O)N[C@@H](CCCNC(=N)N)C(=O)N[C@@H](CCCNC(=N)N)C(=O)NCCCC[C@H](NC(=O)[C@H](CCCNC(=N)N)NC(=O)[C@H](CCCNC(=N)N)NC(=O)C(CCCC)CCCCCC)C(N)=O (stereo partly shown) [Compound B7]
Response: 8 µg/mL

Query: Indicate the recorded MIC C. albicans ATCC 10231 value for this compound: CCCCCCCCCCCC(=O)N[C@@H](CCCNC(=N)N)C(=O)N[C@@H](CCCNC(=N)N)C(=O)NCCCC[C@H](NC(=O)[C@H](CCCNC(=N)N)NC(=O)[C@H](CCCNC(=N)N)NC(=O)CCCCCCCCCCC)C(N)=O [Compound B3] (Lauroyl-Arg-Arg-Lys([Arg-Arg-Lauroyl])-NH2)
Response: 2 µg/mL

Query: Indicate the recorded MIC C. albicans ATCC 10231 value for this compound: CCCCCCC(CCCC)C(=O)N[C@@H](CCCNC(=N)N)C(=O)N[C@@H](CCCNC(=N)N)C(=O)N[C@@H](CSSC[C@H](NC(=O)[C@H](CCCNC(=N)N)NC(=O)[C@H](CCCNC(=N)N)NC(=O)C(CCCC)CCCCCC)C(N)=O)C(N)=O (stereo partly shown) [Compound C7]
Response: 16 µg/mL

Query: Indicate the recorded MIC C. albicans ATCC 10231 value for this compound: CCCCCCCCCCCCCC(=O)N[C@@H](CCCNC(=N)N)C(=O)N[C@@H](CCCNC(=N)N)C(=O)NCCCC[C@H](NC(=O)[C@H](CCCNC(=N)N)NC(=O)[C@H](CCCNC(=N)N)NC(=O)CCCCCCCCCCCCC)C(N)=O [Compound B4] (Myristoyl-Arg-Arg-Lys([Arg-Arg-Myristoyl])-NH2)
Response: 4 µg/mL

Query: Indicate the recorded MIC C. albicans ATCC 10231 value for this compound: CCCCCCCCCCCC(=O)N[C@@H](CCCNC(=N)N)C(=O)N[C@@H](CCCNC(=N)N)C(N)=O [Compound A3, C12-RR-NH2] (Lauroyl-Arg-Arg-NH2)
Response: 64 µg/mL

###

Listing of entries alongside the reported MBEC Staphylococcus aureus ATCC 33591.
- System: Staphylococcus aureus ATCC 33591
- Assay type: cell-based
- condition.label: ATCC 33591, 24 h
Where a SMILES comes first, the peptide text is derived from it. Bridges are numbered along the chain shown (N, C = ends). Roman numbers before positions name the chains, in order. Side-chain parts run from the residue outwards. [ ]: non-standard residue; d: D form. The star is where a group is joined. Lauroyl = CCCCCCCCCCCC(=O)*; Nle = CCCC[C@H](N)C(=O)O; Octanoyl = CCCCCCCC(=O)*
// note: answer is a bare numeric in µg/mL

[
  {
    "compound": "CCCCCCCC(=O)N[C@@H](CCCC)C(=O)N[C@@H](CCCNC(=N)N)C(=O)N[C@@H](CCCNC(=N)N)C(=O)N[C@@H](CSSC[C@H](NC(=O)[C@H](CCCNC(=N)N)NC(=O)[C@H](CCCNC(=N)N)NC(=O)[C@H](CCCC)NC(=O)CCCCCCC)C(N)=O)C(N)=O [Compound C6] (I: Octanoyl-[Nle]RRC-NH2 / II: Octanoyl-[Nle]RRC-NH2; disulfide I:4-II:4)",
    "unit.abbrev": "µg/mL",
    "MBEC Staphylococcus aureus ATCC 33591": 8
  },
  {
    "compound": "CCCCCCCC(=O)N[C@@H](CCCC)C(=O)N[C@@H](CCCNC(=N)N)C(=O)N[C@@H](CCCNC(=N)N)C(=O)NCCCC[C@H](NC(=O)[C@H](CCCNC(=N)N)NC(=O)[C@H](CCCNC(=N)N)NC(=O)[C@H](CCCC)NC(=O)CCCCCCC)C(N)=O [Compound B6] (Octanoyl-[Nle]RRK([Arg-Arg-Nle-Octanoyl])-NH2)",
    "unit.abbrev": "µg/mL",
    "MBEC Staphylococcus aureus ATCC 33591": 4
  }
]

Lab note: next compound to report on.
Query: Indicate the recorded MBEC Staphylococcus aureus ATCC 33591 value for this compound: CCCCCCCCCCCC(=O)N[C@@H](CCCNC(=N)N)C(=O)N[C@@H](CCCNC(=N)N)C(N)=O [Compound A3, C12-RR-NH2] (Lauroyl-Arg-Arg-NH2)
Response: 64

# credit: paper PMC8036666
